Source of measurements: PubChem BioAssay (NCI)

# System: KM12 colon
# assayMethodText: NCI-60 one-dose screen, 48 h (100 = growth as untreated, 0 = no growth, -100 = all killed)
# conditionInfo: 10 µM unless noted
This is part of a sample that, as a whole, favours compounds with a hit. Of some 83,000 tested, about 20% had one in any assay.
Recorded measurements of growth, one per entry

molecule: Cc1nc2sccn2c1-c1csc(Nc2ccccc2Cl)n1
subjectOfTest: KM12 colon
quantityUnit: %
growth: 29.6

molecule: Nc1c(C(=O)Nc2cccc(C(F)(F)F)c2)sc2nc3c(cc12)CCCCC3
subjectOfTest: KM12 colon
quantityUnit: %
growth: 35.7

molecule: CN(C)c1ccc(-c2ccc(-c3ccc(C(=N)N)cn3)o2)cc1
subjectOfTest: KM12 colon
quantityUnit: %
growth: -97

molecule: COc1ccc(C2SCC(=O)N2NC(=O)c2ccc(NC(=O)c3ccccn3)cc2)cc1OC (stereo not given)
subjectOfTest: KM12 colon
quantityUnit: %
growth: 95.8

molecule: O=C(O)c1cccc([N+](=O)[O-])c1/C=C/c1ccccc1
subjectOfTest: KM12 colon
quantityUnit: %
growth: 99.8

molecule: COc1cc2c(cc1OC)C1(C)N(CC2)C(=O)OC1(C)C (stereo not given)
subjectOfTest: KM12 colon
quantityUnit: %
growth: 112

molecule: CCC1CCc2nc3sc(C(=O)Nc4ccccc4C)c(N)c3cc2C1 (stereo not given)
subjectOfTest: KM12 colon
quantityUnit: %
growth: 29.6

molecule: O=C1CCCCN1CCCCC#Cc1ccccc1C#Cc1ccccn1
subjectOfTest: KM12 colon
quantityUnit: %
growth: 111

molecule: C=C1C(=O)O[C@H]2[C@H]1CC/C(Cn1cc(-c3ccc(N)cc3)nn1)=C\CC[C@@]1(C)O[C@@H]21
subjectOfTest: KM12 colon
quantityUnit: %
growth: 51.5

molecule: COc1cc(Cn2c(SCC(=O)Nc3cc(OC)c(OC)c(OC)c3)nc3ccccc3c2=O)cc(OC)c1OC
subjectOfTest: KM12 colon
quantityUnit: %
growth: 99.1
